Attribution: patent US20220259289A1

EXPERIMENTAL_TARGET: unrelated Fc-fused recombinant protein (negative control)
ASSAY_METHOD_TEXT: ELISA, bacterial lysate on plate-bound antigen, luminescence

BINDER	ELISA Fc Control (RLU)
ISOP120ER5P1B12 (designed binder, not shown: small tags and cut ends, FN3 domain (Centyrin); tested as E. coli lysate) LPAPKNLVVSRVTEDSARLSWTAPDAAFDSFAIYYIEWTAYGEAIVLTVPGSERSYDLTGLKPGTEYVVRISGVKCGIVSFPLSAIFTT	720
ISOP120AR5P1D2 (designed binder, not shown: small tags and cut ends, FN3 domain (Centyrin); tested as E. coli lysate) LPAPKNLVVSRVTEDSARLSWDFAYFKFDSFLIQYQESEKVGEAIVLTVPGSERSYDLTGLKPGTEYTVSIYGVGRFYTVYYSNPLSAIFTT	640
